meta.source: paper PMC5540273

Test system: VEGFR2
Construct: gene KDR
EXPERIMENTAL_PARAMETERS: concentration: 1 μM, replicates: in singlicate; n = 1;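 also: KINOMEscan kinase panel screen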
Task for the reader: assign each of the following compounds its reported %Inh.
Report only the number, with the unit % understood.

Data request: Fill in %Inh for record Cl.Cl.Cl.N#Cc1ccc(CCNc2nccc(-c3cccc(CN4CCNCC4)c3)n2)cc1
Data returned: 0

Data request: Fill in %Inh for record Cn1cncc1-c1cc2c(Nc3ccc(OCc4ccccc4)cc3)ncnc2cn1
Data returned: 0

Data request: Fill in %Inh for record Cc1ccccc1-c1cc(-c2c[nH]nc2-c2ccccn2)ccn1
Data returned: 0

Data request: Fill in %Inh for record Cc1ccc(NC(=O)Nc2ccc(Cl)cc2)cc1-c1ccc(C(=O)Nc2ccncc2)cc1
Data returned: 9

Data request: Fill in %Inh for record COC(=O)C(Cc1ccccc1)NC(=O)NC1CCN(c2ccnc(Nc3ccc(F)cc3)n2)C1 (stereo not shown)
Data returned: 7

Data request: Fill in %Inh for record CS(=O)(=O)Cc1ccc(Nc2nccc(-c3c(-c4cccc(NC(=O)C5CCCCC5)c4)nn4ncccc34)n2)cc1
Data returned: 29

Data request: Fill in %Inh for record COc1ccc(CSc2nnc(-c3ccc4nccn4c3)o2)cc1C(F)(F)F
Data returned: 10

Data request: Fill in %Inh for record COc1cccc(C2=C(Nc3cc(Cl)c(O)c(Cl)c3)C(=O)NC2=O)c1
Data returned: 0

Data request: Fill in %Inh for record COC(=O)c1cccc(NC(=O)NC2CCN(c3ccnc(Nc4ccc(F)cc4)n3)C2)c1 (stereo not shown)
Data returned: 0

Data request: Fill in %Inh for record CCn1c(-c2c(N)noc2C)nc2cnccc21
Data returned: 0

* * *

Test system: MINK
Construct: gene MINK1
EXPERIMENTAL_PARAMETERS: concentration: 1 μM, replicates: in singlicate; n = 1
Task for the reader: assign each of the following compounds its reported %Inh.
Report only the number, with the unit % understood.

Data request: Fill in %Inh for record O=c1cc(N2CCOCC2)nc2n(Cc3cccc(Cl)c3Cl)c3ccccc3n12
Data returned: 5

Data request: Fill in %Inh for record Cc1c(Cn2c3ccccc3n3c(=O)cc(N4CCOCC4)nc23)cccc1C(F)(F)F
Data returned: 0

Data request: Fill in %Inh for record CN1c2ccc(-c3ccc(C(N)=O)cc3)cc2-c2[nH]ncc2S1(=O)=O
Data returned: 53

Data request: Fill in %Inh for record Cc1ccc(NC(=O)Nc2ccccc2)cc1-c1ccc(C(=O)Nc2ccncc2)cc1
Data returned: 3

Data request: Fill in %Inh for record CCn1c(-c2c(N)noc2C)nc2cnccc21
Data returned: 0

Data request: Fill in %Inh for record COc1cccc(C2=C(Nc3cc(Cl)c(O)c(Cl)c3)C(=O)NC2=O)c1
Data returned: 0

Data request: Fill in %Inh for record Cc1ccccc1Cn1ccn2c(=O)cc(N3CCOCC3)nc12
Data returned: 0

Data request: Fill in %Inh for record CC(C)c1ccc(O)cc1Nc1ccnc2ccc(C(F)(F)F)cc12
Data returned: 0

Data request: Fill in %Inh for record c1ccc(-c2ccnc3[nH]ccc23)cc1
Data returned: 19

Data request: Fill in %Inh for record NS(=O)(=O)c1cccc(N/C=C2\C(=O)Nc3ccc(S(=O)(=O)Cc4c(Cl)cccc4Cl)cc32)c1
Data returned: 80

Data request: Fill in %Inh for record CC(C)c1cc(-c2ccc3c(N)n[nH]c3c2)nc(N)n1
Data returned: 21

Data request: Fill in %Inh for record CNc1nc(-c2ccc3c(N)n[nH]c3c2)cc(N2C[C@@H](C(=O)Nc3ccccc3)CC[C@H]2C)n1
Data returned: 0

Data request: Fill in %Inh for record Nc1nccc(-c2c(-c3ccc(F)cc3)ncn2C2CCN(Cc3ccccc3)CC2)n1
Data returned: 32

* * *

System: WEE2
EXPERIMENTAL_PARAMETERS: concentration: 1 μM, replicates: in singlicate; n = 1
Classify as follows. Reported %Inh greater than or equal to 20%: rule met. Reported %Inh below: rule not met.

Data request: Can CSc1ccc(-c2nc3n(c2-c2ccncc2)CCC3)cc1 be said to have %Inh at or above 20%?
Data returned: rule not met

Data request: Can CCn1c(-c2ccccc2)nc2cnccc21 be said to have %Inh at or above 20%?
Data returned: rule not met

Data request: Can COc1nccc(-c2c(-c3ccc(F)cc3)ncn2CCCN2CCOCC2)n1 be said to have %Inh at or above 20%?
Data returned: rule met

Data request: Can COc1ccc(Nc2nccc(N3CCC(NC(=O)C(C)c4ccc(Cl)cc4)CC3)n2)cc1 (centres unmarked) be said to have %Inh at or above 20%?
Data returned: rule not met

* * *

Test system: TIE1
EXPERIMENTAL_PARAMETERS: concentration: 1 μM, replicates: in singlicate; n = 1
Task for the reader: assign each of the following compounds its reported %Inh.

Data request: Return reported %Inh for target or system TIE1, item CC(C)c1ccc(O)cc1Nc1ccnc2ccc(C(F)(F)F)cc12 .
Data returned: 13%

Data request: Return reported %Inh for target or system TIE1, item COc1ccc(Nc2nccc(N3CCC(NC(=O)C(C)c4ccc(Cl)cc4)C3)n2)cc1 (stereo not shown) .
Data returned: 35%

Data request: Return reported %Inh for target or system TIE1, item Cc1c(Cn2c3ccccc3n3c(=O)cc(N4CCOCC4)nc23)cccc1C(F)(F)F .
Data returned: 6%

Data request: Return reported %Inh for target or system TIE1, item Cl.Cl.Cl.N#Cc1ccc(CCNc2nccc(-c3cccc(CN4CCNCC4)c3)n2)cc1 .
Data returned: 2%

Data request: Return reported %Inh for target or system TIE1, item Nc1ncnc2occ(-c3ccc4c(c3)CCN4C(=O)Cc3cc(F)ccc3F)c12 .
Data returned: 45%

Data request: Return reported %Inh for target or system TIE1, item COc1ccc(Nc2nccc(N3CCC(NC(=O)c4cc5ccccc5s4)C3)n2)cc1 (stereo not shown) .
Data returned: 0%

Data request: Return reported %Inh for target or system TIE1, item CCCCc1nn2ncccc2c1-c1ccnc(NC2CC2)n1 .
Data returned: 0%

Data request: Return reported %Inh for target or system TIE1, item CC(=O)c1cccc(NC(=O)NC2CCN(c3ccnc(Nc4ccc(F)cc4)n3)C2)c1 (stereo not shown) .
Data returned: 0%

Data request: Return reported %Inh for target or system TIE1, item Cc1ccc(NC(=O)Nc2ccccc2F)cc1-c1ccc(C(=O)Nc2ccncc2)cc1 .
Data returned: 35%

Data request: Return reported %Inh for target or system TIE1, item Cc1ccccc1-c1cc(-c2c[nH]nc2-c2ccccn2)ccn1 .
Data returned: 6%

* * *

System: IKK-beta
Construct: gene IKBKB
EXPERIMENTAL_PARAMETERS: concentration: 1 μM, replicates: in singlicate; n = 1
Classify as follows. Reported %Inh greater than or equal to 7%: 1. Reported %Inh below: -1.

Data request: Can Cc1cnc(N)c(/C=C/c2cncc(C(=O)NCCc3ccc(Cl)cc3Cl)c2)c1.Cl be said to have %Inh at or above 7%?
Data returned: 1

Data request: Can Cc1ccc(NC(=O)Nc2ccc(Cl)cc2)cc1-c1ccc(C(=O)Nc2ccncc2)cc1 be said to have %Inh at or above 7%?
Data returned: 1

Data request: Can Cc1ccccc1Cn1ccn2c(=O)cc(N3CCOCC3)nc12 be said to have %Inh at or above 7%?
Data returned: 1

Data request: Can Nc1cccc(-c2ccc3c(N)n[nH]c3c2)n1 be said to have %Inh at or above 7%?
Data returned: 1

Data request: Can COc1ccc(Nc2nccc(NCCNC(=O)Nc3cc(C)ccc3C)n2)cc1 be said to have %Inh at or above 7%?
Data returned: 1

Data request: Can CC[C@@H]1CO[C@H](C(=O)Nc2ccccc2)CN1c1cc(-c2ccc3c(N)n[nH]c3c2)nc(NC)n1 be said to have %Inh at or above 7%?
Data returned: -1

Data request: Can Fc1ccc(-c2nn3cccc(F)c3c2-c2ccncc2)cc1 be said to have %Inh at or above 7%?
Data returned: -1

Data request: Can COc1ccc(Nc2nccc(N3CCC(NC(=O)C(C)c4ccc(Cl)cc4)C3)n2)cc1 (centres unmarked) be said to have %Inh at or above 7%?
Data returned: -1

Data request: Can COc1nccc(-c2c(-c3ccc(F)cc3)ncn2CCCN2CCOCC2)n1 be said to have %Inh at or above 7%?
Data returned: 1

Data request: Can Cc1nccc(-c2c(-c3ccc(F)cc3)ncn2CCCN2CCOCC2)n1.Cl be said to have %Inh at or above 7%?
Data returned: 1

Data request: Can COc1ccc(-c2coc3ccc(-c4nnc(C)o4)cc23)cc1 be said to have %Inh at or above 7%?
Data returned: -1

Data request: Can COc1ccc(Nc2nccc(N3CCC(NC(=O)c4cc5ccccc5s4)C3)n2)cc1 (centres unmarked) be said to have %Inh at or above 7%?
Data returned: 1

Data request: Can COc1cccc(NC(=O)Nc2ccc(C)c(-c3ccc(C(=O)Nc4ccncc4)cc3)c2)c1 be said to have %Inh at or above 7%?
Data returned: 1

Data request: Can CS(=O)(=O)Cc1ccc(Nc2nccc(-c3c(-c4cccc(NC(=O)C5CCCCC5)c4)nn4ncccc34)n2)cc1 be said to have %Inh at or above 7%?
Data returned: 1

Data request: Can O=C(Nc1n[nH]c2nc(-c3ccco3)c(Br)cc12)C1CCN(Cc2ccccc2)C1.O=C(O)[C@H](O)[C@@H](O)C(=O)O (centres unmarked) be said to have %Inh at or above 7%?
Data returned: 1

Data request: Can O=C(Nc1n[nH]c2nc(-c3cccs3)c(Br)cc12)C1CC1 be said to have %Inh at or above 7%?
Data returned: 1

Data request: Can CNC(=O)c1ccc(C)c(-n2c(C)cc(OCc3ccc(F)cc3F)c(Br)c2=O)c1 be said to have %Inh at or above 7%?
Data returned: -1

Data request: Can Cc1ccc(NC(=O)Nc2ccc(Cl)c(C(F)(F)F)c2)cc1-c1ccc(C(=O)Nc2ccncc2)cc1 be said to have %Inh at or above 7%?
Data returned: -1

Data request: Can Cn1cncc1C(=O)NC1CCN(c2ccnc(Nc3ccc(F)cc3)n2)C1 (centres unmarked) be said to have %Inh at or above 7%?
Data returned: 1

Data request: Can Cc1ccc(NC(=O)Nc2ccccc2F)cc1-c1ccc(C(=O)Nc2ccncc2)cc1 be said to have %Inh at or above 7%?
Data returned: -1

Data request: Can CC(=O)c1cccc(NC(=O)NC2CCN(c3ccnc(Nc4ccc(F)cc4)n3)C2)c1 (centres unmarked) be said to have %Inh at or above 7%?
Data returned: -1

Data request: Can O=C1NC(=O)C(c2ccc(Cl)cc2)=C1Nc1cccc(Cl)c1 be said to have %Inh at or above 7%?
Data returned: -1

Data request: Can O=C(Nc1n[nH]c2cc(-c3ccsc3)ccc12)C1CC1 be said to have %Inh at or above 7%?
Data returned: 1

Data request: Can Cc1c(Cn2c(C)c(C)n3c(=O)cc(N4CCOCC4)nc23)cccc1C(F)(F)F be said to have %Inh at or above 7%?
Data returned: -1

Data request: Can Cc1ccccc1-c1cc(-c2c[nH]nc2-c2ccccn2)ccn1 be said to have %Inh at or above 7%?
Data returned: 1

Data request: Can COc1ccc(CSc2nnc(-c3ccc4ncsc4c3)o2)cc1C(F)(F)F be said to have %Inh at or above 7%?
Data returned: -1

Data request: Can CNCc1ccc2nc(NC(=O)c3ccc(C(C)(C)C)cc3)cn2c1 be said to have %Inh at or above 7%?
Data returned: -1

Data request: Can COc1ccc(CSc2nnc(-c3ccc4c(c3)CCO4)o2)cc1 be said to have %Inh at or above 7%?
Data returned: -1
